- target_entity: P2X7 (Homo sapiens (Human), UniProt Q99572)
- Sequence (Q99572 whole entry): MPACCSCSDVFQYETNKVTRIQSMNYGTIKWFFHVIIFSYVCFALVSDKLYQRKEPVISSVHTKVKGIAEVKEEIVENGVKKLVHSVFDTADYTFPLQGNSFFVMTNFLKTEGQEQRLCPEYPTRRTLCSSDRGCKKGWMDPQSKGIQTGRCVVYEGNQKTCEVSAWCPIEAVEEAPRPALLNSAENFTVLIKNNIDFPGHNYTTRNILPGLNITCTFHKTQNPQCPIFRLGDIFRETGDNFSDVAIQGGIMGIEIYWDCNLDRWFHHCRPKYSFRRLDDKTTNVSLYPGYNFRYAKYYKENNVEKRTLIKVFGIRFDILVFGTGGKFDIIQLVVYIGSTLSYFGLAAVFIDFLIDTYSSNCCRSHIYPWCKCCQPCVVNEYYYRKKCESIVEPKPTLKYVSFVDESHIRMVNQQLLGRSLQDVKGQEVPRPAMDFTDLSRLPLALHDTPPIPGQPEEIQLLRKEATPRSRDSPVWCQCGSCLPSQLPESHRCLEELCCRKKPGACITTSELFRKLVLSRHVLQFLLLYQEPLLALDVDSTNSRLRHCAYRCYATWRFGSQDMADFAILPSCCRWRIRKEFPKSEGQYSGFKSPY
- assay_name: Ca2+ flux (FLIPR) in 1321N1 cells expressing recombinant human P2X7 channel
- Format: cell-based
- assay_context: 250 μM BzATP
pIC50: −log10 of the molar value.
attribute_measured: pIC50

Consider the following illustrative entries.
| molecule | pIC50 |
| --- | --- |
| O=C(c1cccc(C(F)(F)F)c1F)N1CCc2c(nnn2-c2ncccn2)C1 [Example 66] | 7.76 |
| CCOC(=O)C1c2ncn(-c3cnccn3)c2CCN1C(=O)c1cccc(Cl)c1Cl (centres unmarked) [Example 29] | 7.10 |
| O=C(c1cccc(C(F)(F)F)c1Cl)N1CCc2c(nnn2-c2ccn[nH]2)C1 [Example 68] | 7.77 |
| C[C@H]1c2nnn(-c3ccn(C)n3)c2CCN1C(=O)c1cccc(C(F)(F)F)c1Cl (single isomer, unassigned) [Example 170] | 8.05 |
| O=C(c1cccc(Cl)c1Cl)N1CCc2c(nnn2-c2ncccn2)C1 [Example 67] | 8.52 |
| O=C(c1cccc(Cl)c1Cl)N1CCc2c(nnn2-c2ccccc2)C1 [Example 62] | 7.12 |

[A] Cc1ccnc(-n2nnc3c2CCN(C(=O)c2cccc(Cl)c2Cl)C3C)n1 (centres unmarked) [Example 225]
[B] O=C(OCC1c2ncn(-c3ccccc3)c2CCN1C(=O)c1cccc(C(F)(F)F)c1Cl)c1cccc(C(F)(F)F)c1Cl (centres unmarked) [Example 36]
[C] Cc1c(C(=O)N2CCc3c(nnn3-c3ncccn3)C2)cccc1C(F)(F)F [Example 281]
(Q) Put the items in order so that reported pIC50 rises from first to last. Respond with the label ranking, as requested.
(A) B, A, C

----------
- target_entity: P2X7 (Homo sapiens (Human))
- assay_name: P2X7 antagonism in human PBMCs (LPS + Bz-ATP induced IL-1β release, ELISA)
- Format: cell-based
- assay_context: compound 10 μM, LPS 30 ng/ml, Bz-ATP 0.5 mM
attribute_measured: PBMC 10 μM (% control)

Consider the following illustrative entries.
| compound | target_entity | unit_of_measure | reported |
| --- | --- | --- | --- |
| Cc1ccc(-n2nnc3c2CCN(C(=O)c2cccc(Cl)c2Cl)C3C)nc1 (centres unmarked) | P2X7 (Homo sapiens (Human)) | % control | −0.5 |
| C[C@@H]1c2nnn(-c3ncccn3)c2CCN1C(=O)c1cccc(C(F)(F)F)c1F (single isomer, unassigned) | P2X7 (Homo sapiens (Human)) | % control | −3.7 |
| Cc1ccnc(-n2nnc3c2CCN(C(=O)c2cccc(Cl)c2Cl)C3C)n1 (centres unmarked) | P2X7 (Homo sapiens (Human)) | % control | −1.0 |
| CC1c2ncn(-c3ccccn3)c2CCN1C(=O)c1cccc(C(F)(F)F)c1F (centres unmarked) | P2X7 (Homo sapiens (Human)) | % control | 11.6 |
| O=C(c1ccc(Cl)cc1Cl)N1CCc2c(nnn2-c2cnccn2)C1 | P2X7 (Homo sapiens (Human)) | % control | −3.7 |
| CC1c2nnn(-c3ncccn3)c2CCN1C(=O)c1ccc(Cl)cc1F (centres unmarked) | P2X7 (Homo sapiens (Human)) | % control | −8.3 |

[I] O=C(c1ccc(Cl)cc1Cl)N1CCc2c(nnn2-c2ncccn2)C1
[II] C[C@@H]1Cc2c(nnn2-c2ncc(F)cn2)CN1C(=O)c1ccc(Cl)c(F)c1Cl (single isomer, unassigned)
(Q) Among I and II , whose measured PBMC 10 μM (% control) is the smaller figure? Select an item and report its label.
(A) I

----------
- target_entity: rat P2X7 (Rattus norvegicus (Rat), UniProt Q64663)
- Sequence (Q64663 whole entry): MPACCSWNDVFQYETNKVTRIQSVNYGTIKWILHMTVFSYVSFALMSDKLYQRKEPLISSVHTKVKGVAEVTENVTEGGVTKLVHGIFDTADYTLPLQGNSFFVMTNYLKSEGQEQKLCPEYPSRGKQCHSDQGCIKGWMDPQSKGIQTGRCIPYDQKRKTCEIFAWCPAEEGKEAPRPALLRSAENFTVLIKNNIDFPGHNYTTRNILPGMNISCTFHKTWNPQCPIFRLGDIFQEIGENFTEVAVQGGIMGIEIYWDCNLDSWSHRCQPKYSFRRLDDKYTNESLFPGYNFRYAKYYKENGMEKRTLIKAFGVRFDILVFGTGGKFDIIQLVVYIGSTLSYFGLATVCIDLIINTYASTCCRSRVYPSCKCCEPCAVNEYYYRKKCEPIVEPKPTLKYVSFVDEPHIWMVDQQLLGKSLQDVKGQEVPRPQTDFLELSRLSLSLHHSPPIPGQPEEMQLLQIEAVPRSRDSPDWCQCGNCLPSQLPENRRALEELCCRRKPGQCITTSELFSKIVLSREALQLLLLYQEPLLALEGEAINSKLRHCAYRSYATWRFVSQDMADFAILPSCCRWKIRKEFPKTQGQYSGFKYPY
- assay_name: Ca2+ flux (FLIPR) in 1321N1 cells expressing recombinant rat P2X7 channel;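 further: Calcium-4 dye fluorescence change read 180 s after agonist addition, following 30 min cell preincubation with test compound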
- assay_context: 250 μM BzATP
attribute_measured: IC50 (nM)

| compound | reported |
| --- | --- |
| CC1Cc2c(-c3ccn[nH]3)n[nH]c2CN1C(=O)c1ccc(Cl)cc1Cl (centres unmarked) | 1220 |
| O=C(c1cccc(C(F)(F)F)c1Cl)N1CCc2[nH]nnc2C1c1ccccc1 (centres unmarked) | 501 |
| O=C(c1cccc(C(F)(F)F)c1F)N1CCc2c(nnn2-c2cnccn2)C1 | 1460 |
| CN(C)C(=O)C1c2ncn(-c3ccccn3)c2CCN1C(=O)c1cccc(C(F)(F)F)c1Cl (centres unmarked) | 158 |
| CC1c2ncn(-c3ccc(F)cc3)c2CCN1C(=O)c1cccc(C(F)(F)F)c1F (centres unmarked) | 2370 |
| CC1Cc2c(nnn2-c2cc[nH]n2)CN1C(=O)c1cccc(C(F)(F)F)c1F (centres unmarked) | 6.3 |

[1] Cc1c(C(=O)N2Cc3nnn(-c4cc[nH]n4)c3CC2C)cccc1C(F)(F)F (centres unmarked)
[2] CC1c2nnn(-c3ccc(F)cc3)c2C=CN1C(=O)c1cccc(C(F)(F)F)c1Cl (centres unmarked)
(Q) Among 1 and 2 , whose measured IC50 is the smaller figure? Select an item and report its label.
(A) 1

----------
pKi: −log10 of the molar value.
What follows is a collection of pKi values obtained with P2X7 (Homo sapiens (Human), UniProt Q99572).
attribute_measured: pKi

Consider the following illustrative entries.
| compound | target_entity | pKi |
| --- | --- | --- |
| O=C(c1cccc(C(F)(F)F)c1F)N1CCc2c(nnn2-c2ncccn2)C1 | P2X7 (Homo sapiens (Human), UniProt Q99572) | 7.80 |
| Cn1nc(-c2ccccc2)c2c1CN(C(=O)c1cccc(Cl)c1Cl)CC2 | P2X7 (Homo sapiens (Human), UniProt Q99572) | 6.56 |

[I] Cc1c(C(=O)N2CCc3c(nnn3-c3cnccn3)C2)cccc1C(F)(F)F
[II] O=C(c1cccc(C(F)(F)F)c1Cl)N1CCc2c(-c3ccc(F)cn3)n[nH]c2C1
(Q) Between I and II , whose measured pKi reads higher? Select an item and report its label.
(A) I

[I] C[C@H]1c2nnn(-c3cccc(F)n3)c2CCN1C(=O)c1cccc(C(F)(F)F)c1Cl (single isomer, unassigned)
[II] O=C(c1ccc(Cl)cc1F)N1CCc2c(nnn2-c2ncccn2)C1
(Q) Between I and II , whose measured pKi reads higher? Select an item and report its label.
(A) I
(I: 7.40, II: 7.20)

----------
- target_entity: P2X7 (Homo sapiens (Human), UniProt Q99572)
- assay_name: P2X7 antagonism in human PBMCs (LPS + Bz-ATP induced IL-1β release, ELISA);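 further: PBMCs from donor human blood, with a further 1.5 h incubation of the cells in the assay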
- Assay type: cell-based
- assay_context: compound 10 μM, LPS 30 ng/ml, Bz-ATP 0.5 mM
attribute_measured: PBMC 10 μM (% control)

| compound | target_entity | PBMC 10 μM (% control) |
| --- | --- | --- |
| C[C@@H]1c2nnn(-c3ccn(CCF)n3)c2CCN1C(=O)c1cccc(C(F)(F)F)c1Cl (single isomer, unassigned) | P2X7 (Homo sapiens (Human), UniProt Q99572) | 28.7 |
| C[C@H]1c2nnn(-c3ccccn3)c2CCN1C(=O)c1ccc(F)c(Cl)c1Cl (single isomer, unassigned) | P2X7 (Homo sapiens (Human), UniProt Q99572) | 33.8 |
| CC1Cc2c(nnn2-c2ncc(F)cn2)CN1C(=O)c1ccc(F)c(Cl)c1Cl (stereo not shown) | P2X7 (Homo sapiens (Human), UniProt Q99572) | 0.3 |
| C[C@@H]1c2ncn(-c3ccc(F)cn3)c2CCN1C(=O)c1cccc(C(F)(F)F)c1Cl (single isomer, unassigned) | P2X7 (Homo sapiens (Human), UniProt Q99572) | 36.5 |

----------
- target_entity: UniProt Q99572
- assay_name: Ca2+ flux (FLIPR) in 1321N1 cells expressing recombinant human P2X7 channel;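 further: Calcium-4 dye-loaded cells exposed to compound for 30 min before agonist addition, fluorescence change read 180 s after agonist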
- Type: cell-based
- assay_context: 250 μM BzATP
pIC50: −log10 of the molar value.
attribute_measured: pIC50

Consider the following illustrative entries.
| compound | pIC50 |
| --- | --- |
| O=C(c1ccc(F)cc1Cl)N1CCc2c(nnn2-c2ccccn2)C1 [Example 117] | 5.65 |
| CC1c2nnn(-c3ncccc3F)c2C=CN1C(=O)c1cccc(C(F)(F)F)c1Cl (stereo not drawn) [Example 82] | 7.76 |
| O=C(c1cccc(Cl)c1Cl)N1CCc2c(ncn2-c2ccn[nH]2)C1 [Example 60] | 7.25 |
| O=C(c1ccc(F)c(Cl)c1Cl)N1CCc2c(nnn2-c2ccccn2)C1 [Example 130] | 8.44 |
| CC1c2nnn(-c3cnccn3)c2CCN1C(=O)c1ccc(Cl)cc1Cl (stereo not drawn) [Example 279] | 8.07 |

[I] CC1Cc2c(nnn2-c2cc(F)ccn2)CN1C(=O)c1cccc(C(F)(F)F)c1Cl (stereo not drawn) [Example 176]
[II] CC1CN(C(=O)c2cccc(C(F)(F)F)c2Cl)C(C)c2nnn(-c3ccc(F)cc3)c21 (stereo not drawn) [Example 238]
(Q) Between I and II , whose measured pIC50 reads higher? Select an item and report its label.
(A) I
(I: 8.10, II: 7.57)

[I] Cc1ccnc(-n2nnc3c2CCN(C(=O)c2cccc(C(F)(F)F)c2Cl)[C@@H]3C)n1 [Example 235]
[II] CC1c2nnn(-c3cnccn3)c2CCN1C(=O)c1ccc(Cl)cc1F (stereo not drawn) [Example 274]
[III] O=C(c1cccc(Cl)c1Cl)N1CCc2c(nc(C(F)(F)F)n2-c2ccccc2)C1 [Example 58]
[IV] Cc1cncc(-n2nnc3c2CCN(C(=O)c2cccc(C(F)(F)F)c2Cl)C3C)n1 (stereo not drawn) [Example 251]
(Q) Put the items in order so that reported pIC50 rises from first to last. Respond with the label ranking, as requested.
(A) IV, II, III, I

[I] CC1c2nnn(-c3ncccn3)c2CCN1C(=O)c1ccc(Cl)cc1Cl (stereo not drawn) [Example 283]
[II] CCOC(=O)C1c2ncn(-c3ccccc3)c2CCN1C(=O)c1cccc(C(F)(F)F)c1Cl (stereo not drawn) [Example 26]
(Q) Among I and II , whose measured pIC50 is the smaller figure? Select an item and report its label.
(A) II

[P] Cc1c(C(=O)N2CCc3c(nnn3-c3cnccn3)C2)cccc1C(F)(F)F [Example 276]
[Q] Cc1cc(C)nc(-n2nnc3c2CCN(C(=O)c2cccc(C(F)(F)F)c2Cl)C3C)c1 (stereo not drawn) [Example 300]
(Q) Among P and Q , whose measured pIC50 is the smaller figure? Select an item and report its label.
(A) Q
